The reported measurements were obtained from BindingDB's records for doi:10.1016/s0960-894x(99)00444-8.

Molecular target: Vesicular glutamate transporter 1 (Rattus norvegicus)
Measured attribute: Ki (µM)
Answers are plain numbers, in µM.

Exercise: Give me measured Ki, please, for this compound: O=C(O)c1cc(C(=O)O)c2cc(OCc3ccccc3)ccc2n1
Key: 204
